Origin of measurements: ChEMBL document CHEMBL1129428

System: Rattus norvegicus
assay.remarks: Compound was tested for anticonvulsant activity after Oral Administration into Rats by using MES screen test after 0.5h,dose 30 mg/kg; number of rats out of four which were protected
Assay type: functional
Would you kindly list Activity for each of these compounds?
// no unit, no text: just the number

Which Activity value belongs to CC/C(=N/NC(N)=O)c1ccc(Oc2ccccc2)cc1 ?
4

I am curious: what Activity value has been reported for C/C(=N/NC(N)=O)c1ccc(Sc2ccc(F)cc2)cc1 ?
4

Which value of Activity has been reported for C/C(=N/NC(N)=O)c1ccc(Oc2ccc(Cl)cc2)cc1 in the records?
4

For the compound CC/C(=N/NC(N)=O)c1ccc(Sc2ccccc2)cc1 , what Activity is on record?
3

I have this compound here, C/C(=N/NC(N)=O)c1ccccc1Oc1ccc(F)cc1 , and I need its recorded Activity.
1

Please report the recorded Activity for CC/C(=N/NC(N)=O)c1ccc(Oc2ccc(Cl)cc2)cc1 .
1

Consider the compound C/C(=N/NC(N)=O)c1ccc(Oc2ccccc2)cc1 and give its measured Activity.
4

Field request: Activity | item: C/C(=N/NC(N)=O)c1ccc(Sc2ccccc2)cc1
4

Quick one: Activity of Cc1cccc(C)c1Oc1ccc(/C=N/NC(N)=O)cc1 ?
4
